- TARGET OF ASSAY: Porcine DPP-IV (Sus scrofa, UniProt P22411)
- Construct: purchased Sigma-Aldrich Germany
- Sequence (P22411 whole entry): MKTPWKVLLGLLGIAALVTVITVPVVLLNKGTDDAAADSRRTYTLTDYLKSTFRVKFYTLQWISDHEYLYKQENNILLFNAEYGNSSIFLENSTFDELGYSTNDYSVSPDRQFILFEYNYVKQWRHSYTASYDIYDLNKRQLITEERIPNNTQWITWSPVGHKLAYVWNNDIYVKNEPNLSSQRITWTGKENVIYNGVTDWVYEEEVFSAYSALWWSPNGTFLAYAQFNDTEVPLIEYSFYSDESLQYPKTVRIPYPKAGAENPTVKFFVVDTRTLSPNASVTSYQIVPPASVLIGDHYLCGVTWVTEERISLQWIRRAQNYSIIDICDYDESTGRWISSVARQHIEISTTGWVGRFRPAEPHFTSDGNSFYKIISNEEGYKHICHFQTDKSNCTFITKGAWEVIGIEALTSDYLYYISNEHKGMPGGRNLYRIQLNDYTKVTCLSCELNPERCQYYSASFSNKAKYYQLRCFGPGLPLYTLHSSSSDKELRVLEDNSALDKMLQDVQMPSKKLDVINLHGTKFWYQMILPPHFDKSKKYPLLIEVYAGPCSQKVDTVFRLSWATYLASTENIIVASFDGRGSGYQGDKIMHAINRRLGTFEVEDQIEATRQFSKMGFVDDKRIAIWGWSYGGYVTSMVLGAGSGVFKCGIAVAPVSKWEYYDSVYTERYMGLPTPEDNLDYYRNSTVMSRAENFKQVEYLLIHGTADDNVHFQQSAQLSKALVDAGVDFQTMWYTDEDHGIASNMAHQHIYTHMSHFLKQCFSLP
- MEASUREMENT DESCRIPTION: Assay of DPP-IV enzyme inhibitory activity (spectrophotometric, Gly-Pro-pNA cleavage)
- Format: biochemical
- CONDITION SUMMARY: Porcine DPP-IV, Gly-Pro-pNA substrate, 30° C.; mean ± SD of three experiments except compound Nos. 133 & 139; read-out: IC50 (μM) Mean ± SD, inhibitory activity on DPP-IV enzyme activity
Each record is given Criterion met if its reported IC50 is strictly below 2 µM. Records at or above 2 µM are given Criterion not met.

# count of solved cases: 3
1. N#CC1CSCN1C(=O)CN(N)C1CCN(CCOc2ccccc2)CC1 (stereo not drawn)	Criterion met
2. CC(C)(C)C(=O)NC1CCC(N(N)CC(=O)N2CSCC2C#N)CC1.O=C(O)C(F)(F)F (stereo not drawn) [Compound No. 96]	Criterion not met
3. CCNN(CC(=O)N1CSCC1C#N)C1CCN(C(=O)N2CCOCC2)CC1.O=C(O)C(F)(F)F (stereo not drawn)	Criterion met

*Q* Would you kindly verify if IC50 of CC(C)N(N)CC(=O)N1CCCC1C#N (stereo not drawn) [Compound No. 41] is strictly less than 2 µM?
*A* Criterion not met

*Q* Would you kindly verify if IC50 of N#Cc1ccc(NC(=O)CNC2CCC(N(N)CC(=O)N3CSCC3C#N)CC2)cc1 (stereo not drawn) is strictly less than 2 µM?
*A* Criterion met

*Q* Would you kindly verify if IC50 of N#Cc1ccc(NC(=O)CN2CCC(N(N)CC(=O)N3CSCC3C#N)CC2)cc1 (stereo not drawn) is strictly less than 2 µM?
*A* Criterion met

*Q* Would you kindly verify if IC50 of CC(C)NN(CC(=O)N1CSCC1C#N)C1CCN(S(C)(=O)=O)CC1.O=C(O)C(F)(F)F (stereo not drawn) is strictly less than 2 µM?
*A* Criterion not met

*Q* Would you kindly verify if IC50 of CC(=O)N1CCC(N(N)CC(=O)N2CSCC2C#N)CC1 (stereo not drawn) is strictly less than 2 µM?
*A* Criterion met

*Q* Would you kindly verify if IC50 of CCCC1CCC(N(N)CC(=O)N2CSCC2C#N)CC1 (stereo not drawn) [Compound No. 64] is strictly less than 2 µM?
*A* Criterion met

*Q* Would you kindly verify if IC50 of CC(C)N(N)CC(=O)N1CCCC1C#N (stereo not drawn) [Compound No. 12] is strictly less than 2 µM?
*A* Criterion not met

*Q* Would you kindly verify if IC50 of CC1CCC(NN(C)CC(=O)N2CSCC2C#N)CC1 (stereo not drawn) [Compound No. 68] is strictly less than 2 µM?
*A* Criterion not met

*Q* Would you kindly verify if IC50 of N#CC1CSCN1C(=O)CN(N)C1CCN(C(=O)CN2CCOCC2)CC1 (stereo not drawn) is strictly less than 2 µM?
*A* Criterion met

*Q* Would you kindly verify if IC50 of N#CC1CSCN1C(=O)CN(N)C1CCC(NCC(=O)Nc2ccc(Cl)cc2)CC1 (stereo not drawn) is strictly less than 2 µM?
*A* Criterion met

*Q* Would you kindly verify if IC50 of Cc1cnc(C(=O)NC2CCC(N(N)CC(=O)N3CSCC3C#N)CC2)cn1 (stereo not drawn) is strictly less than 2 µM?
*A* Criterion met

*Q* Would you kindly verify if IC50 of N#CC1CSCN1C(=O)CN(N)C1CCN(CC(=O)Nc2ccc3c(c2)OCO3)CC1 (stereo not drawn) is strictly less than 2 µM?
*A* Criterion met

*Q* Would you kindly verify if IC50 of N#CC1CSCN1C(=O)CN(N)C1CCN(CC(=O)Nc2ncc(Br)s2)CC1 (stereo not drawn) is strictly less than 2 µM?
*A* Criterion met

*Q* Would you kindly verify if IC50 of N#CC1CSCN1CC(=O)NN(CC(=O)N1CCCC1C#N)C1CCCCC1 (stereo not drawn) is strictly less than 2 µM?
*A* Criterion not met

*Q* Would you kindly verify if IC50 of CCC(C)N(N)CC(=O)N1CCCC1C#N (stereo not drawn) is strictly less than 2 µM?
*A* Criterion not met
